# Test system: Plasmodium berghei
# protocolNotes: Antimalarial activity as reduced parasitaemia against Plasmodium berghei infected MORO mice (Mus musculus) at 10 mg/kg peroral dose
# Format: functional
# Design: scale not given: the % may be the effect or the level left
# conditionParameters: route oral
resultType: Activity (%)
Report the figure in % without appending any unit label.

Request: Find the measured Activity: item CS(=O)(=O)O.NOC[C@H]1CC[C@]2(CC1)OOC1(O2)C2CC3CC(C2)CC1C3 (stereo not given in full) , target or system Plasmodium berghei.
Response: 47

Request: Next record, please: `Cc1ccc(S(=O)(=O)O)cc1.N[C@H]1CC[C@]2(CC1)OO[C@]1(O2)C2CC3CC(C2)CC1C3`
Response: 98

Request: Here is the next molecule: `NC(=O)c1cn(C[C@H]2CC[C@]3(CC2)OO[C@]2(O3)C3CC4CC(C3)CC2C4)cn1`
Response: 99.76

Request: Further, for `O=CN1CCN(C[C@H]2CC[C@]3(CC2)OO[C@]2(O3)C3CC4CC(C3)CC2C4)CC1` ?
Response: 99.01

Next:
Request: API: value(readout= Activity, system= Plasmodium berghei, query= CS(=O)(=O)O.NC(=O)CCNC[C@H]1CC[C@]2(CC1)OOC1(O2)C2CC3CC(C2)CC1C3 (stereo not given in full) )
Response: 99.92

* * *

# protocolNotes: Biodistribution in Sprague-Dawley rat at 4 mg/kg, iv and 10 mg/kg, po
# Format: ADME, organism-based
# conditionParameters: in vivo
resultType: Vd (L/kg)
Respond with the bare value in L/kg.

Request: Fill in the blank: the reported Vd of `OC[C@H]1CC[C@]2(CC1)OO[C@]1(O2)C2CC3CC(C2)CC1C3` is ____.
Response: 5.3

* * *

# protocolNotes: Bioavailability in Sprague-Dawley rat at 25 mg/kg, po
# Format: ADME, organism-based
# conditionParameters: in vivo
resultType: bioavailability (%)
Give the value in % but do not write % after it.

Request: What value of bioavailability has been reported for the following compound? CS(=O)(=O)O.NC[C@H]1CC[C@]2(CC1)OOC1(O2)C2CC3CC(C2)CC1C3 (some centres not stated)
Response: 31

Next compound, bioavailability to be filled in.
Request: Look at this compound and give its reported bioavailability. `NC(=O)CNC[C@H]1CC[C@]2(CC1)OO[C@]1(O2)C2CC3CC(C2)CC1C3`
Response: 58

* * *

# protocolNotes: Biodistribution in Sprague-Dawley rat at 10 mg/kg, iv and 50 mg/kg, po
# Assay type: ADME, organism-based
# conditionParameters: in vivo
resultType: Vd
Reply with the number, then its unit.

Request: What value of measured Vd is listed for `Cl.c1cn(C[C@H]2CC[C@]3(CC2)OO[C@]2(O3)C3CC4CC(C3)CC2C4)cn1` ?
Response: 4.1 L/kg
